target: T1, BMPRIa receptor-Fc fusion (UniProt P36894 24-152, limits assumed); assay: ELISA-like, fixed volume of conditioned media, receptor-Fc
T1 construct: BMP receptor-Fc fusion; also called ALK-3
T1 sequence (P36894 24-152 limits assumed): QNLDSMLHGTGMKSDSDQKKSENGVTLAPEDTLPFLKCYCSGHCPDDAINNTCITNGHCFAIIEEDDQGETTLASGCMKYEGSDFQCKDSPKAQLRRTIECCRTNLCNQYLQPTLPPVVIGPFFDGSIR
Observable: BMPRIa binding relative to wild type

What does the record list as BMPRIa binding relative to wild type for BMP-7 variant K39T (ligand) STGGKQRSQNRSKTPKNQEALRMASVAENSSSDQRQACTKHELYVSFRDLGWQDWIIAPEGYAAYYCEGECAFPLNSYMNATNHAIVQTLVHFINPETVPKPCCAPTQLNAISVLYFDDSSNVILKKYRNMVVRACGCH ?
0.74 relative to wt = 1.0
